- Measured Target: Bcl-2 protein (Recombinant Human Bcl-2 Protein) (Homo sapiens)
- Construct: purchased Novus NBP2-34889
- Assay Protocol: Binding evaluation of mixture library compounds to Bcl-2 using AS-MS (affinity selection mass spectrometry)
- Condition: AS-MS on the mixture of 1200 library compounds; ASMS Ratio(%)=(A−C)/B×100; replicate n = 1
The reader will find reported ASMS ratio (%) n = 1 values listed item by item below.
Numeric only. Scale: %

# annotated cases, reported ASMS ratio (%) n = 1 shown
[[record]]
compound = "CCOc1cncc(-c2ccc(C(=O)N3CCN(c4ccc(C(=O)Nc5ccc(OC)cc5)nn4)CC3)cc2F)c1"
assay_readout = "ASMS ratio (%) n = 1"
readout_unit = "%"
endpoint_value = 4.7

[[record]]
compound = "CCOc1cccc(-c2ccc(CN3CCN(c4ccc(C(=O)N(C)CC56CC7CC(CC(C7)C5)C6)nn4)CC3)c(OC)c2)c1"
assay_readout = "ASMS ratio (%) n = 1"
readout_unit = "%"
endpoint_value = "−5.8"

[[record]]
compound = "CCOc1cncc(C#Cc2cncc(C(=O)N3CCN(c4ccc(C(=O)N(CC)CC)cc4)CC3)c2)c1"
assay_readout = "ASMS ratio (%) n = 1"
readout_unit = "%"
endpoint_value = "−7.2"


# query: ASMS ratio (%) n = 1 of entry CCOc1cncc(-c2ccc(C(=O)N3CCN(c4ccc(C(=O)Nc5ccc(OC)cc5)cc4)CC3)cc2C)c1 1.7

* * *

- Measured Target: Bcl-2 protein (Recombinant Human Bcl-2 Protein) (Homo sapiens, UniProt P10415)
- Construct: purchased Novus NBP2-34889
- Sequence (P10415 whole entry): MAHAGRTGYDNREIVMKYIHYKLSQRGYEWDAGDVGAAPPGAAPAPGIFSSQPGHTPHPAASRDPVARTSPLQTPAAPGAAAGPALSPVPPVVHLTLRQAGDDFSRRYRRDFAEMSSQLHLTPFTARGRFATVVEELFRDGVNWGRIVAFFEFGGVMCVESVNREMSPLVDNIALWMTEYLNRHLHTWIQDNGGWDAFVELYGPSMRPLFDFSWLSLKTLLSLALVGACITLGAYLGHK
- Assay Protocol: Binding evaluation of mixture library compounds to Bcl-2 using AS-MS (affinity selection mass spectrometry)
- Condition: n = 1
Assay Readout: ASMS ratio (%)
Numeric only. Scale: %

# annotated cases, reported ASMS ratio (%) shown
[[record]]
line_notation = "CCOc1cccc(-c2cc(OC)c(CN3CCN(c4ccc(C(=O)NS(=O)(=O)CCC(F)(F)F)cc4)CC3)c(OC)c2)c1"
endpoint_value = 0.0

[[record]]
line_notation = "CCOc1cccc(-c2ccc(CN3CCN(c4ccc(C(=O)NS(=O)(=O)CCC(F)(F)F)nn4)CC3)c3ccccc23)c1"
endpoint_value = 0.0

[[record]]
line_notation = "CCOc1cncc(-c2ccc(CN3CCN(c4ccc(C(=O)NS(=O)(=O)c5ccc(NCCSc6ccccc6)c(C(F)(F)F)c5)nn4)CC3)c3ccccc23)c1"
endpoint_value = 16.0


Param readout= ASMS ratio (%); system= Bcl-2 protein (Recombinant Human Bcl-2 Protein) (Homo sapiens, UniProt P10415); entry= CCOc1cncc(-c2cc(C(=O)N3CCN(c4ccc(C(=O)NS(=O)(=O)CCC(F)(F)F)nn4)CC3)cc(C(C)(C)C)c2)c1 ; returns value. 0.0

Param readout= ASMS ratio (%); system= Bcl-2 protein (Recombinant Human Bcl-2 Protein) (Homo sapiens, UniProt P10415); entry= CCOc1cncc(-c2cnn(-c3cc(C(=O)N4CCN(c5ccc(C(=O)NS(=O)(=O)c6ccc(NCCSc7ccccc7)c(C(F)(F)F)c6)cc5)CC4)cc(C(F)(F)F)c3)c2)c1 ; returns value. −3.7

Param readout= ASMS ratio (%); system= Bcl-2 protein (Recombinant Human Bcl-2 Protein) (Homo sapiens, UniProt P10415); entry= CCOc1cncc(-c2csc(CN3CCN(c4ccc(C(=O)NS(=O)(=O)c5ccc(NCCSc6ccccc6)c(C(F)(F)F)c5)cc4)CC3)c2)c1 ; returns value. 0.0
